- Test system: S. aureus TOUR L 1282
- TEST_SUMMARY: MIC, two-fold dilution microtiter, rifampicin resistant S. aureus TOUR L 1282
- Format: cell-based
- MEASUREMENT_CONTEXT: Staphylococcus aureus, TOURL1282, rifampicin resistant strain
Consider the following compounds; for each one, report its MIC.

Query: Requested read-out: MIC. Entry: COc1ccc(N2CCN(c3nc4c(s3)c3c(O)c5c(O)c(C)c6c(c54)C(=O)C(C)(OC=CC(OC)C(C)C(OC(C)=O)C(C)C(O)C(C)C(O)C(C)C=CC=C(C)C(=O)N3)O6)CC2)cc1 (stereo not shown) [Example 3e]
Result: > 128 µg/mL

Query: Requested read-out: MIC. Entry: COC1C=COC2(C)Oc3c(C)c(O)c4c(O)c(c5sc(N6CCN(C)CC6)nc5c4c3C2=O)NC(=O)C(C)=CC=CC(C)C(O)C(C)C(O)C(C)C(O)C1C (stereo not shown) [Example 3b]
Result: > 128 µg/mL

Query: Requested read-out: MIC. Entry: COC1C=COC2(C)Oc3c(C)c(O)c4c(O)c(c5sc(N6CCN(c7ccc(Cl)cc7)CC6)nc5c4c3C2=O)NC(=O)C(C)=CC=CC(C)C(O)C(C)C(O)C(C)C(OC(C)=O)C1C (stereo not shown) [Example 3d]
Result: > 128 µg/mL

Query: Requested read-out: MIC. Entry: CCOC(=O)N1CCN(c2nc3c(s2)c2c(O)c4c(O)c(C)c5c(c43)C(=O)C(C)(OC=CC(OC)C(C)C(OC(C)=O)C(C)C(O)C(C)C(O)C(C)C=CC=C(C)C(=O)N2)O5)CC1 (stereo not shown) [Example 1e]
Result: 128 µg/mL

Query: Requested read-out: MIC. Entry: COC1C=COC2(C)Oc3c(C)c(O)c4c(O)c(c5sc(N6CCOCC6)nc5c4c3C2=O)NC(=O)C(C)=CC=CC(C)C(O)C(C)C(O)C(C)C(OC(C)=O)C1C (stereo not shown) [Example 1b, 2'-(4"-morpholinyl) rifamycin P]
Result: 64 µg/mL

Query: Requested read-out: MIC. Entry: COC1C=COC2(C)Oc3c(C)c(O)c4c(O)c(c5sc(N6CCN(C)CC6)nc5c4c3C2=O)NC(=O)C(C)=CC=CC(C)C(O)C(C)C(O)C(C)C(OC(C)=O)C1C (stereo not shown) [Example 3a]
Result: 32 µg/mL

Query: Requested read-out: MIC. Entry: COC1C=COC2(C)Oc3c(C)c(O)c4c(O)c(c5sc(N6CCN(c7ccccc7)CC6)nc5c4c3C2=O)NC(=O)C(C)=CC=CC(C)C(O)C(C)C(O)C(C)C(OC(C)=O)C1C (stereo not shown) [Example 1c, 2'(4"-phenyl-1"-piperazinyl) rifamycin P]
Result: > 128 µg/mL

Query: Requested read-out: MIC. Entry: COC1C=COC2(C)Oc3c(C)c(O)c4c(O)c(c5sc(N6CCCCC6)nc5c4c3C2=O)NC(=O)C(C)=CC=CC(C)C(O)C(C)C(O)C(C)C(OC(C)=O)C1C (stereo not shown) [Example 2, 2'-(1"-Piperidinyl) rifamycin P]
Result: > 100 µg/mL

Query: Requested read-out: MIC. Entry: COC1C=COC2(C)Oc3c(C)c(O)c4c(O)c(c5sc(N6CCNCC6)nc5c4c3C2=O)NC(=O)C(C)=CC=CC(C)C(O)C(C)C(O)C(C)C(OC(C)=O)C1C (stereo not shown) [Example 4, 2'-(1"-Piperazinyl) rifamycin P]
Result: > 128 µg/mL

Query: Requested read-out: MIC. Entry: CCN(CC)c1nc2c(s1)c1c(O)c3c(O)c(C)c4c(c32)C(=O)C(C)(OC=CC(OC)C(C)C(OC(C)=O)C(C)C(O)C(C)C(O)C(C)C=CC=C(C)C(=O)N1)O4 (stereo not shown) [Example 5, 2'-(N,N-diethylamino) rifamycin P]
Result: > 128 µg/mL
